- Assay type: in vitro ADME
Marks after values point to notes of the source that are not given here.
Would you kindly list S9 stability T1/2 hamster for each of these compounds?

Enquiry: Using the record for O=S(=O)(Cc1ccccc1)c1nc(-c2ccccc2)c(-c2ccccc2)[nH]1 [Compound 13a] , report its S9 stability T1/2 hamster.
Return: <2.5 min

Enquiry: What value of measured S9 stability T1/2 hamster is listed for C#CCn1c([S+](=O)([O-])Cc2ccc(F)cc2)nc(-c2ccccc2)c1-c1ccccc1 [Compound 3] ?
Return: <2.5 min

Enquiry: GET /values?readout=S9 stability T1/2 hamster&item= Cn1c(S(=O)(=O)Cc2ccccc2)nc(-c2ccccc2)c1-c1ccccc1 [Compound 13b]
Return: <2.5^b min

Enquiry: Which S9 stability T1/2 hamster is listed for Cn1c(S(=O)(=O)Cc2ccc(F)cc2)nc(-c2ccc(F)cc2)c1-c1ccc(F)cc1 [Compound 13c] ?
Return: <2.5^b min

---

- protocol.text: in vitro
- Assay type: in vitro ADME
- run.parameters: human, s9
endpoint.label: half-life

Enquiry: I would be grateful if you could share the reported half-life for Cn1c(S(=O)(=O)Cc2ccccc2)nc(-c2ccccc2)c1-c1ccccc1 [Compound 13b] .
Return: 2 to 12 min

Just for reference, paper PMC3743129 is where these values come from.
